Reported CC50 values for the following compounds.
assayRemarks: Cytotoxicity against human MT4 cells by MTT assay
Assay type: cell-based
Answer format: numeric, µM implied, no suffix.

Some compounds with recorded CC50:
{"columns": ["compound", "u", "resultNumber"],
 "data": [
  ["O=C1c2ccccc2C(=O)N1CCOC(=S)N(C(=O)c1cccc(Cl)c1Cl)c1ccc(Cl)cc1", "µM", 54],
  ["O=C1c2ccccc2C(=O)N1CCOC(=S)N(C(=O)c1cc([N+](=O)[O-])ccc1Cl)c1ccc(Cl)cc1", "µM", 45],
  ["O=C1c2ccccc2C(=O)N1CCOC(=S)N(C(=O)c1ccc(Cl)cc1Cl)c1ccc(Cl)cc1", "µM", 18],
  ["Cc1ccc(N(C(=O)c2ccccc2[N+](=O)[O-])C(=S)OCCN2C(=O)c3ccccc3C2=O)cc1", "µM", 100],
  ["O=C1c2ccccc2C(=O)N1CCOC(=S)N(C(=O)c1ccco1)c1ccc(Cl)c(Cl)c1", "µM", 100]
]}

# CC50 of "O=C1c2ccccc2C(=O)N1CCOC(=S)N(C(=O)c1cccc([N+](=O)[O-])c1)c1ccc(Cl)cc1" = 18

# CC50 of "Cc1ccc(N(C(=O)c2cccc([N+](=O)[O-])c2)C(=S)OCCN2C(=O)c3ccccc3C2=O)cc1" = 100

# CC50 of "COc1cccc(OC)c1C(=O)N(C(=S)OCCN1C(=O)c2ccccc2C1=O)c1ccc(C)cc1" = 36

# CC50 of CC(COC(=S)N(C(=O)c1cccc([N+](=O)[O-])c1)c1ccc(Cl)cc1)N1C(=O)c2ccccc2C1=O (racemic) = 77

# CC50 of "Cc1ccc(N(C(=O)c2cc(F)ccc2F)C(=S)OCCN2C(=O)c3ccccc3C2=O)cc1" = 62

# CC50 of "O=C1c2ccccc2C(=O)N1CCOC(=S)N(C(=O)c1cccc(F)c1F)c1ccc(Cl)cc1" = 58

# CC50 of "O=C1c2ccccc2C(=O)N1CCOC(=S)N(C(=O)c1ccc2ccccc2c1)c1ccc(Cl)cc1" = 37

====

assayRemarks: Selectivity index, ratio of CC50 for human MT4 cells to EC50 for HIV1 3B
Format: toxicity, cell-based
experimentalSetup: read-out: Ratio CC50/EC50
Reported selectivity ratio values for the following molecules.
Note: the reply should be a number with no unit written.

{"columns": ["molecularString", "selectivity ratio"],
 "data": [
  ["O=C1c2ccccc2C(=O)N1CCOC(=S)N(C(=O)c1cccc([N+](=O)[O-])c1)c1ccc(Cl)cc1", 12000],
  ["Cc1ccc(N(C(=O)c2cc(F)cc(F)c2)C(=S)OCCN2C(=O)c3ccccc3C2=O)cc1", 1080]
]}

// switching to the query molecule
# selectivity ratio of "Cc1cccc2c1C(=O)N(CCOC(=S)N(C(=O)c1cccc([N+](=O)[O-])c1)c1ccc(Cl)cc1)C2=O" = 1470

====

assayRemarks: Selectivity index, ratio of CC50 for human MT4 cells to EC50 for HIV1 3B
Format: toxicity, cell-based
experimentalSetup: read-out: Ratio CC50/EC50
measuredAttribute: selectivity ratio
Note: the reply should be a number with no unit written.

Some compounds with recorded selectivity ratio:
{"columns": ["compound", "selectivity ratio"],
 "data": [
  ["O=C1c2ccccc2C(=O)N1CCOC(=S)N(C(=O)c1cccc(Cl)c1Cl)c1ccc(Cl)cc1", 540],
  ["O=C1c2ccccc2C(=O)N1CCOC(=S)N(C(=O)c1c(Cl)cccc1Cl)c1ccc(Cl)cc1", 3.6],
  ["Cc1cc(C(=O)N(C(=S)OCCN2C(=O)c3ccccc3C2=O)c2ccc(Cl)cc2)c(C)o1", 2000],
  ["O=C1c2ccccc2C(=O)N1CCOC(=S)N(C(=O)c1cc(F)ccc1F)c1ccc(Cl)cc1", 2700]
]}

// switching to the query compound
# selectivity ratio of CC(COC(=S)N(C(=O)c1cccc([N+](=O)[O-])c1)c1ccc(Cl)cc1)N1C(=O)c2ccccc2C1=O (racemic) = 1540

====

Test system: Human immunodeficiency virus 1
assayRemarks: Antiviral activity against HIV1 3B infected in human MT4 cells assessed as inhibition of virus-induced cytopathogenicity by MTT assay
Assay type: functional, organism-based
experimentalSetup: Human immunodeficiency virus 1, 3B
Reported pEC50 values for the following molecules.
Scale: pEC50 equals -log10([C]), with [C] in mol/L.

{"columns": ["molecularString", "measuredAttribute", "resultNumber"],
 "data": [
  ["Cc1ccc2c(c1)C(=O)N(CCOC(=S)N(C(=O)c1ccc(Cl)cc1)c1ccc([N+](=O)[O-])cc1)C2=O", "pEC50", 7.40]
]}

# pEC50 of "O=C1c2ccccc2C(=O)N1CCOC(=S)N(C(=O)c1ccccc1)c1ccccc1" = 6.40

# pEC50 of "O=C1c2ccccc2C(=O)N1CCCOC(=S)N(C(=O)c1cccc([N+](=O)[O-])c1)c1ccc(Cl)cc1" = 4.54

# pEC50 of "O=C1c2ccccc2C(=O)N1CCOC(=S)N(C(=O)c1ccc([N+](=O)[O-])cc1Cl)c1ccc(Cl)cc1" = 8.10

# pEC50 of "O=C1c2ccccc2C(=O)N1CCOC(=S)N(C(=O)c1cc(F)cc(F)c1)c1ccc(Cl)cc1" = 8.15

# pEC50 of "Cc1ccc(N(C(=O)c2ccc(Cl)c(Cl)c2)C(=S)OCCN2C(=O)c3ccccc3C2=O)cc1" = 7.30

# pEC50 of "O=C1c2ccccc2C(=O)N1CCOC(=S)N(C(=O)c1ccc([N+](=O)[O-])cc1)c1ccc(Cl)cc1" = 7.22

====

assayRemarks: Cytotoxicity against human MT4 cells by MTT assay
Assay type: cell-based
measuredAttribute: CC50 (µM)
Answer format: numeric, µM implied, no suffix.

Some compounds with recorded CC50:
{"columns": ["molecularString", "measuredAttribute", "resultNumber"],
 "data": [
  ["O=C1c2ccccc2C(=O)N1CCOC(=S)N(C(=O)c1cc(F)ccc1F)c1ccc(Cl)cc1", "CC50", 54],
  ["O=C1c2ccccc2C(=O)N1CCOC(=S)N(C(=O)c1c(Cl)cccc1Cl)c1ccc(Cl)cc1", "CC50", 20],
  ["Cc1ccc(N(C(=O)c2cc(F)cc(F)c2)C(=S)OCCN2C(=O)c3ccccc3C2=O)cc1", "CC50", 54],
  ["Cc1ccc(N(C(=O)c2ccc(Cl)cc2Cl)C(=S)OCCN2C(=O)c3ccccc3C2=O)cc1", "CC50", 49],
  ["O=C1c2ccccc2C(=O)N1CCOC(=S)N(C(=O)c1ccc(F)c(F)c1)c1ccc(Cl)cc1", "CC50", 52]
]}

# CC50 of "O=C1c2ccccc2C(=O)N1CCOC(=S)N(C(=O)c1ccc(Cl)c([N+](=O)[O-])c1)c1ccc(Cl)cc1" = 48

# CC50 of "Cc1ccc(N(C(=O)c2cccc(Cl)c2Cl)C(=S)OCCN2C(=O)c3ccccc3C2=O)cc1" = 35

====

Reported CC50 values for the following compounds.
assayRemarks: Cytotoxicity against human MT4 cells by MTT assay
Assay type: cell-based
Answer format: numeric, µM implied, no suffix.

Some compounds with recorded CC50:
{"columns": ["molecularString", "u", "CC50"],
 "data": [
  ["O=C1c2ccccc2C(=O)N1CCOC(=S)N(C(=O)c1c(F)cccc1F)c1ccc(Cl)cc1", "µM", 39],
  ["Cc1cc(C(=O)N(C(=S)OCCN2C(=O)c3ccccc3C2=O)c2ccc(Cl)cc2)c(C)o1", "µM", 40],
  ["Cc1ccc(N(C(=O)c2ccc([N+](=O)[O-])cc2)C(=S)OCCN2C(=O)c3ccccc3C2=O)cc1", "µM", 58],
  ["O=C1c2ccccc2C(=O)N1CCOC(=S)N(C(=O)c1cc2ccccc2s1)c1ccc(Cl)cc1", "µM", 56],
  ["O=C1c2ccccc2C(=O)N1CCOC(=S)N(C(=O)c1ccccc1[N+](=O)[O-])c1ccc(Cl)cc1", "µM", 21]
]}

# CC50 of "O=C1c2ccccc2C(=O)N1CCOC(=S)N(C(=O)c1ccc(C(F)(F)F)cc1)c1ccc(Cl)cc1" = 10

# CC50 of "Cc1ccc(N(C(=O)c2ccc(Cl)c([N+](=O)[O-])c2)C(=S)OCCN2C(=O)c3ccccc3C2=O)cc1" = 47

====

assayRemarks: Selectivity index, ratio of CC50 for human MT4 cells to EC50 for HIV1 3B
Type: toxicity, cell-based
experimentalSetup: read-out: Ratio CC50/EC50
Reported selectivity ratio values for the following compounds.

Some compounds with recorded selectivity ratio:
{"columns": ["molecularString", "result"],
 "data": [
  ["Cc1ccc2c(c1)C(=O)N(CCOC(=S)N(C(=O)c1cccc([N+](=O)[O-])c1)c1ccc(Cl)cc1)C2=O", "> 2000"],
  ["Cc1ccc2c(c1)C(=O)N(CCOC(=S)N(C(=O)c1cccs1)c1ccc(Cl)cc1)C2=O", "> 5000"],
  ["Cc1ccc(C(=O)N(C(=S)OCCN2C(=O)c3ccccc3C2=O)c2ccc(Cl)cc2)cc1", "> 2000"]
]}

# selectivity ratio of "O=C1c2ccccc2C(=O)N1CCOC(=S)N(C(=O)c1cccnc1Cl)c1ccc(Br)cc1" = > 500
